- System: human apolipoprotein B mRNA
- ASSAY COMMENT: Inhibition of human apolipoprotein B mRNA levels in HepG2 cells, quantitative real-time PCR
- Assay type: cell-based
- SETTINGS: Table 11 gene walk; HepG2 cells, 150 nM; averages from two experiments
In the oligonucleotide strings, read from the 5' end, every base follows the letter of its sugar. An asterisk marks phosphorothioate; unmarked linkages are phosphodiester. Other units and linkages are bracketed, terminal groups are in braces. A string of capitals states the bases alone. e = 2'-O-(2-methoxyethyl) (MOE); [5mC] = 5-methylcytosine; d = 2'-deoxy (DNA)
METRIC: % INHIB 150 nm (%)
# number only, unit % dropped from output

Per the records, this substance ( 308605 (eG*eA*eA*eT*eG*dT*d[5mC]*dA*dT*dG*dG*dT*dA*dG*d[5mC]*e[5mC]*eT*e[5mC]*eA*eG; antisense) [compound 308605] ) has % INHIB 150 nm equal to 81

Per the records, this substance ( 308609 (e[5mC]*eA*eG*e[5mC]*e[5mC]*dA*d[5mC]*dA*dT*dG*d[5mC]*dA*dG*d[5mC]*dT*eT*e[5mC]*eA*eG*eG; antisense) [compound 308609] ) has % INHIB 150 nm equal to 96

Per the records, this substance ( 308613 (eT*eA*eG*eG*eT*dT*dA*d[5mC]*d[5mC]*dA*dG*d[5mC]*d[5mC]*dA*d[5mC]*eA*eT*eG*e[5mC]*eA; antisense) [compound 308613] ) has % INHIB 150 nm equal to 87

Per the records, this substance ( 308617 (eG*e[5mC]*eT*e[5mC]*e[5mC]*dT*dT*dT*dT*dA*dG*dG*dT*dT*dA*e[5mC]*e[5mC]*eA*eG*e[5mC]; antisense) [compound 308617] ) has % INHIB 150 nm equal to 87

Per the records, this substance ( 308621 (eT*eT*eT*eG*eG*dT*dA*dG*dG*d[5mC]*dT*d[5mC]*d[5mC]*dT*dT*eT*eT*eA*eG*eG; antisense) [compound 308621] ) has % INHIB 150 nm equal to 91

Per the records, this substance ( 308612 (eG*eG*eT*eT*eA*d[5mC]*d[5mC]*dA*dG*d[5mC]*d[5mC]*dA*d[5mC]*dA*dT*eG*e[5mC]*eA*eG*e[5mC]; antisense) [compound 308612] ) has % INHIB 150 nm equal to 90

Per the records, this substance ( 308608 (eA*eT*eA*eT*eT*dT*dG*dA*dA*dT*dG*dT*d[5mC]*dA*dT*eG*eG*eT*eA*eG; antisense) [compound 308608] ) has % INHIB 150 nm equal to 85

Per the records, this substance ( 308604 (eA*eT*eG*eT*e[5mC]*dA*dT*dG*dG*dT*dA*dG*d[5mC]*d[5mC]*dT*e[5mC]*eA*eG*eT*e[5mC]; antisense) [compound 308604] ) has % INHIB 150 nm equal to 90

Per the records, this substance ( 308597 (antisense eT*e[5mC]*eA*eG*eT*d[5mC]*dT*dG*d[5mC]*dT*dT*d[5mC]*dG*d[5mC]*dA*e[5mC]*e[5mC]*eT*eT*e[5mC]) [compound 308597] ) has % INHIB 150 nm equal to 91

Per the records, this substance ( 308596 (antisense eA*eG*eT*e[5mC]*eT*dG*d[5mC]*dT*dT*d[5mC]*dG*d[5mC]*dA*d[5mC]*d[5mC]*eT*eT*e[5mC]*eT*eG) [compound 308596] ) has % INHIB 150 nm equal to 94

* * *

- Tested on: human apolipoprotein B mRNA
- ASSAY COMMENT: Inhibition of human apolipoprotein B mRNA levels in HepG2 cells, quantitative real-time PCR
- Type: cell-based
- SETTINGS: HepG2 cells; human apolipoprotein B mRNA; oligonucleotides targeting genomic sequence SEQ ID NO 334; averages from two experiments
In the oligonucleotide strings, read from the 5' end, every base follows the letter of its sugar. An asterisk marks phosphorothioate; unmarked linkages are phosphodiester. Other units and linkages are bracketed, terminal groups are in braces. A string of capitals states the bases alone. e = 2'-O-(2-methoxyethyl) (MOE); [5mC] = 5-methylcytosine; d = 2'-deoxy (DNA)
METRIC: % INHIB (%)
# number only, unit % dropped from output

Per the records, this substance ( 301086 (antisense eG*eG*eT*eT*eT*dT*dG*d[5mC]*dT*dG*d[5mC]*d[5mC]*d[5mC]*dT*dA*e[5mC]*eA*eT*e[5mC]*e[5mC]) [compound 301086] ) has % INHIB equal to 30

Per the records, this substance ( 301073 (e[5mC]*eT*eG*eT*eT*d[5mC]*dT*d[5mC]*d[5mC]*dA*d[5mC]*d[5mC]*d[5mC]*dA*dT*eA*eT*e[5mC]*eA*eG; antisense) [compound 301073] ) has % INHIB equal to 37

Per the records, this substance ( 301084 (antisense eA*e[5mC]*eA*e[5mC]*eG*dG*dT*dA*dT*d[5mC]*d[5mC]*dT*dA*dT*dG*eG*eA*eG*eG*eA) [compound 301084] ) has % INHIB equal to 49

Per the records, this substance ( 301152 (e[5mC]*eT*eG*eG*eA*dT*dA*dA*d[5mC]*dT*d[5mC]*dA*dG*dA*d[5mC]*e[5mC]*eT*eT*eT*eG; antisense) [compound 301152] ) has % INHIB equal to 40

Per the records, this substance ( 301204 (antisense eA*eG*e[5mC]*eT*e[5mC]*d[5mC]*dA*dT*dA*d[5mC]*dT*dG*dA*dA*dG*eT*e[5mC]*e[5mC]*eT*eT) [compound 301204] ) has % INHIB equal to 37

* * *

- Tested on: human apolipoprotein B mRNA
- ASSAY COMMENT: Inhibition of human apolipoprotein B mRNA levels in HepG2 cells, quantitative real-time PCR
- Format: cell-based
- SETTINGS: HepG2 cells, 150 nM oligonucleotide, normalized to untreated control, average of two experiments
In the oligonucleotide strings, read from the 5' end, every base follows the letter of its sugar. An asterisk marks phosphorothioate; unmarked linkages are phosphodiester. Other units and linkages are bracketed, terminal groups are in braces. A string of capitals states the bases alone. e = 2'-O-(2-methoxyethyl) (MOE); [5mC] = 5-methylcytosine; d = 2'-deoxy (DNA)
Please provide measured % inhibition of apolipoprotein B mRNA levels for the entries that follow.
# number only, unit % dropped from output

Per the records, this substance ( 308638 (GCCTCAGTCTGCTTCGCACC; 1-10-9 MOE gapmer, phosphorothioate, chemistry not fully specified) [compound 308638] ) has % inhibition of apolipoprotein B mRNA levels equal to 96

Per the records, this substance ( 281625 (antisense eA*eG*eG*eT*eT*dA*d[5mC]*d[5mC]*dA*dG*d[5mC]*d[5mC]*dA*d[5mC]*dA*eT*eG*e[5mC]*eA*eG) [compound 281625] ) has % inhibition of apolipoprotein B mRNA levels equal to 85

Per the records, this substance ( 308651 (antisense GCCTCAGTCTGCTTCGCGCC; 7-10-3 2'-MOE gapmer, phosphorothioate, chemistry not fully specified) [compound 308651] ) has % inhibition of apolipoprotein B mRNA levels equal to 90

Per the records, this substance ( 308658 (antisense AGGTTACCAGCCACATGCAG; 9-10-1 2'-MOE gapmer, phosphorothioate, chemistry not fully specified) [compound 308658] ) has % inhibition of apolipoprotein B mRNA levels equal to 78

Per the records, this substance ( 301012 (eG*e[5mC]*e[5mC]*eT*e[5mC]*dA*dG*dT*d[5mC]*dT*dG*d[5mC]*dT*dT*d[5mC]*eG*e[5mC]*eA*e[5mC]*e[5mC]) [compound 301012] ) has % inhibition of apolipoprotein B mRNA levels equal to 92

Per the records, this substance ( 308642 (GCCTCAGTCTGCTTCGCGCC; 3-10-7 MOE gapmer, phosphorothioate, chemistry not fully specified) [compound 308642] ) has % inhibition of apolipoprotein B mRNA levels equal to 97

Per the records, this substance ( 271009 (antisense eG*e[5mC]*e[5mC]*eT*e[5mC]*dA*dG*dT*d[5mC]*dT*dG*d[5mC]*dT*dT*d[5mC]*eG*e[5mC]*eG*e[5mC]*e[5mC]) [compound 271009] ) has % inhibition of apolipoprotein B mRNA levels equal to 94

* * *

- System: rabbit apolipoprotein B mRNA
- ASSAY COMMENT: Inhibition of rabbit apolipoprotein B mRNA levels in primary rabbit hepatocytes, real-time PCR
- Assay type: cell-based
- SETTINGS: 50 nM, averages from two experiments
In the oligonucleotide strings, read from the 5' end, every base follows the letter of its sugar. An asterisk marks phosphorothioate; unmarked linkages are phosphodiester. Other units and linkages are bracketed, terminal groups are in braces. A string of capitals states the bases alone. e = 2'-O-(2-methoxyethyl) (MOE); [5mC] = 5-methylcytosine; d = 2'-deoxy (DNA)
Assign labels as follows, please: True for Percent Inhibition of rabbit apolipoprotein B mRNA levels below 70%; False for Percent Inhibition of rabbit apolipoprotein B mRNA levels equal to or exceeding 70%.

*Q* # check: Percent Inhibition of rabbit apolipoprotein B mRNA levels < 70% for 233166 (antisense eG*eG*eA*eT*e[5mC]*dA*d[5mC]*dA*dT*dG*dA*d[5mC]*dT*dG*dA*eA*eT*eG*e[5mC]*eT) [compound 233166]
*A* False

*Q* # check: Percent Inhibition of rabbit apolipoprotein B mRNA levels < 70% for 233175 (antisense eG*eA*e[5mC]*e[5mC]*eT*dT*dG*dA*dG*dT*dA*dG*dA*dT*dT*e[5mC]*e[5mC]*eT*eG*eG) [compound 233175]
*A* False

*Q* # check: Percent Inhibition of rabbit apolipoprotein B mRNA levels < 70% for 233160 (antisense eA*eT*eT*eG*eG*dA*dA*dT*dA*dA*dT*dG*dT*dA*dT*e[5mC]*e[5mC]*eA*eG*eG) [compound 233160]
*A* True

*Q* # check: Percent Inhibition of rabbit apolipoprotein B mRNA levels < 70% for 233172 (antisense eA*eT*eG*eG*eA*dA*dG*dA*d[5mC]*dT*dG*dG*d[5mC]*dA*dG*e[5mC]*eT*e[5mC]*eT*eA) [compound 233172]
*A* False
